- tested system: human glucagon receptors (Homo sapiens)
- Construct: a region corresponding to Open Reading Frame (ORF) in the cDNA; expressed in transfected cells
- Sequence (P47871 26-477): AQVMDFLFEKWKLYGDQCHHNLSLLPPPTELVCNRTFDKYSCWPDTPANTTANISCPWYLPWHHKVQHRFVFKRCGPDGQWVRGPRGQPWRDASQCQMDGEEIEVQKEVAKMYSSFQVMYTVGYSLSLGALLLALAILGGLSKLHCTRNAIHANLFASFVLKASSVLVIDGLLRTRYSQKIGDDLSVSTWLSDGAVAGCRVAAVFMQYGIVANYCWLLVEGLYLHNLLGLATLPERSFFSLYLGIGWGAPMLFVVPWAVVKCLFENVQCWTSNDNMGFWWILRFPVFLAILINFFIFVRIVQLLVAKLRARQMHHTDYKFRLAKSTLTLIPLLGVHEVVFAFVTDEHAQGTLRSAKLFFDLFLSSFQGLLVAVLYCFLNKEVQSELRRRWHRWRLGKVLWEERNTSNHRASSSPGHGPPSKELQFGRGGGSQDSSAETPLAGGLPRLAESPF
- experimental details: cAMP activity of glucagon derivatives in CHO cell line transfected with human glucagon receptor (LANCE cAMP kit)
- Type: cell-based
- assay conditions: cAMP EC50 compared with that of native glucagon; CHO cells with human glucagon receptor
Square brackets hold non-standard residues; d marks the D form. Ends that are not written are not given here. Aib = CC(C)(N)C(=O)O
measured property: In vitro Activity (Relative Activity of SEQ ID NO: 1, %)

> print(dat)
                           residue.sequence  result
1  YXQGTFTSDYSKYLDSRRACDFRLWLMNT (Y[Aib]QGTFTSDYSKYLDSRRACDFRLWLMNT) [SEQ ID NO: 18, glucagon derivative, X = Aib]   <0.1%
2  HSQGTFTSDYSKYLDSCEADDFVQWLMNT (glucagon derivative) [SEQ ID NO: 6]   <0.1%

Here's the next entry for you.
Give its In vitro Activity (Relative Activity of SEQ ID NO: 1, %) value. Item: YXQGTFTSDYSKYLDSCDADDFVVWLINT (Y[Aib]QGTFTSDYSKYLDSCDADDFVVWLINT) [SEQ ID NO: 10, glucagon derivative, X = Aib]
<0.1%
